# measured.target: mouse delta-opioid receptor (Mus musculus)
# Sequence (P32300 whole entry): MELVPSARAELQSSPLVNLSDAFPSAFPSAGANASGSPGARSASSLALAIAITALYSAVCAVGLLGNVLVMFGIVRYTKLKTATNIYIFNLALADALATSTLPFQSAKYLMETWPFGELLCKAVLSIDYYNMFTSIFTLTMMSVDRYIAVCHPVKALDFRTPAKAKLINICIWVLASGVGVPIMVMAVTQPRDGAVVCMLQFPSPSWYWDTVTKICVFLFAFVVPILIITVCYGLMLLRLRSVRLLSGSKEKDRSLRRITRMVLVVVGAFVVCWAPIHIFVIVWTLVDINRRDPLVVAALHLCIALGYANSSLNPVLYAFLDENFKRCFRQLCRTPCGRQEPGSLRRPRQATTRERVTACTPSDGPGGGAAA
# assay.details: [3H]diprenorphine binding on transiently transfected HEK-293 cells, delta
# measurement.conditions: [3H]diprenorphine, HEK-293 cells, mouse delta receptor; read-out: Ki δ
# Method: Receptor Binding. HEK-293 in DMEM (Gibco, BRL) supplemented with 10% Bovine Calf Serum (Hyclone) and 1% penicillin/streptomycin (Gibco, BRL) were maintained at 37° C. and in 5% CO2. Cells were seeded at 16% for 24 hours prior to transfection. […] Sixty to 72 hours after transfection, HEK cells were washed three times with 25 mM HEPES buffer (pH 7.4) and were resuspended with 8–12 mL of 25 mM HEPES/100 mm plate. […] Nonselective binding was determined using 10 μM naltrexone. […]
measure: pKi
Keep it numeric: pKi is minus log10 of the concentration in mol/L.

Q. Returns the measured pKi for the input compound. Input: N=C(N)Nc1ccc2[nH]c3c(c2c1)C[C@@]1(O)[C@H]2Cc4ccc(O)c5c4[C@@]1(CCN2CC1CC1)[C@H]3O5 [Compound 3, reference compound]
A. 7.61

Q. Returns the measured pKi for the input compound. Input: N=C(N)Nc1ccc2c3c([nH]c2c1)[C@@H]1Oc2c(O)ccc4c2[C@@]12CCN(CC1CC1)[C@H](C4)[C@]2(O)C3
A. 7.69

Q. Returns the measured pKi for the input compound. Input: N=C(N)Nc1cccc2c3c([nH]c12)[C@@H]1Oc2c(O)ccc4c2[C@@]12CCN(CC1CC1)[C@H](C4)[C@]2(O)C3
A. 8.56
